# Test system: E. coli (ATCC:3008)
# ASSAY_PROCEDURE: Agar well diffusion, inhibition zone
# Format: cell-based, Escherichia coli
# CONDITION_SUMMARY: 15 mg/mL, 100 μL per well; mm ± SD
OBSERVATION_TYPE: diameter of the IZ, E. coli (ATCC:3008) (mm)

MOLECULE: CCOC(=O)c1cc(C#N)c(=O)n(NS(=O)(=O)c2ccc(C)cc2)c1N [15d]
UNIT_NAME: mm
MEASURED: 19.6
//
MOLECULE: Cc1ccc(S(=O)(=O)Nn2c(N)c(-c3nc4ccccc4s3)c3[nH]nc(N)c3c2=O)cc1
UNIT_NAME: mm
MEASURED: 15.0
//
MOLECULE: Nc1ccc(S(=O)(=O)Nc2ncccn2)cc1 [sulfadiazine, reference compound]
UNIT_NAME: mm
MEASURED: 19.8
//
MOLECULE: CNC(C)C1CCC(N)C(OC2C(N)CC(N)C(OC3OCC(C)(O)C(NC)C3O)C2O)O1 (stereo not drawn)
UNIT_NAME: mm
MEASURED: 25.0

---

# ASSAY_PROCEDURE: Cytotoxicity test on BGM cell line
# Type: cell-based
# CONDITION_SUMMARY: African green monkey, uninfected BGM cells

MOLECULE: CCOC(=O)c1cc(C#N)c(=O)n(NS(=O)(=O)c2ccc(C)cc2)c1N [15d]
CC50 at 72 h (µg/mL): 240
//
MOLECULE: CCOC(=O)c1cc(C#N)c(=O)n(NS(=O)(=O)c2ccccc2)c1N [15c]
CC50 at 72 h (µg/mL): 260

---

# Test system: S. aureus (ATCC:6538)
# ASSAY_PROCEDURE: Agar well diffusion, inhibition zone
# Type: cell-based, Staphylococcus aureus
# CONDITION_SUMMARY: Staphylococcus aureus, 24 h, read-out: diameter of the IZ, S. aureus (ATCC:6538)
OBSERVATION_TYPE: zone of inhibition at 15000 µg/mL (mm)

MOLECULE: CCOC(=O)c1cc(C#N)c(=O)n(NS(=O)(=O)c2ccc(C)cc2)c1N [15d]
UNIT_NAME: mm
MEASURED: 11.3

MOLECULE: CSc1c(-c2nc3ccccc3[nH]2)c(N)n(NS(=O)(=O)c2ccccc2)c(=O)c1C#N [13a]
UNIT_NAME: mm
MEASURED: 30

MOLECULE: Nc1ccc(S(=O)(=O)Nc2ncccn2)cc1 [sulfadiazine, reference compound]
UNIT_NAME: mm
MEASURED: 31.3

MOLECULE: CCSc1c(-c2nc3ccccc3s2)c(N)n(NS(=O)(=O)c2ccc(C)cc2)c(=O)c1C#N [8d]
UNIT_NAME: mm
MEASURED: 29.9

MOLECULE: Nc1n[nH]c2c(-c3nc4ccccc4s3)c(N)n(NS(=O)(=O)c3ccccc3)c(=O)c12 [9a]
UNIT_NAME: mm
MEASURED: 34

MOLECULE: CC1(C)S[C@@H]2[C@H](NC(=O)[C@H](N)c3ccccc3)C(=O)N2[C@H]1C(=O)O [ampicillin, reference compound]
UNIT_NAME: mm
MEASURED: 32

MOLECULE: CCSc1c(-c2nc3ccccc3s2)c(N)n(NS(=O)(=O)c2ccccc2)c(=O)c1C#N [8c]
UNIT_NAME: mm
MEASURED: 24.5

MOLECULE: CSc1c(-c2nc3ccccc3[nH]2)c(N)n(NS(=O)(=O)c2ccc(C)cc2)c(=O)c1C#N [13b]
UNIT_NAME: mm
MEASURED: 28.9

MOLECULE: CSc1c(-c2nc3ccccc3s2)c(N)n(NS(=O)(=O)c2ccc(C)cc2)c(=O)c1C#N [8b]
UNIT_NAME: mm
MEASURED: 19.3

MOLECULE: CSc1c(-c2nc3ccccc3s2)c(N)n(NS(=O)(=O)c2ccccc2)c(=O)c1C#N [8a]
UNIT_NAME: mm
MEASURED: 25.8
